Where do these numbers come from? They come from ChEMBL document CHEMBL4043300.

# ASSAY NOTES: Volume of distribution at steady state in C57BL/6J mouse at 1.3 mg/kg, iv as bolus dose by LC-MS/MS analysis
# Format: ADME, organism-based
# TEST SETTINGS: in vivo, read-out: Vdss
VALUE TYPE: Vd (L/kg)
One number for each entry, in L/kg.

What Vd value was documented for this compound, CC(C)(C)n1ncc(C(=O)N[C@@H](Cc2ccc(OC(F)(F)F)c(Cl)c2)C(=O)NC2(C#N)CC2)n1 ? 1.7

* * *

# ASSAY NOTES: Half life in C57BL/6J mouse at 1.5 mg/kg, iv as bolus dose by LC-MS/MS analysis
# Assay type: ADME, organism-based
# TEST SETTINGS: in vivo
Please respond with reported half-life for every item in the list.
Give bare numbers, in h.

Known half-life results, listed for orientation:
chemical_smiles=N#CC1(NC(=O)[C@H](Cc2ccc(OC(F)(F)F)c(Cl)c2)NC(=O)c2cnn(-c3cccnc3)n2)CC1 reported_result=0.94
chemical_smiles=Cn1ncc(C(=O)N[C@@H](Cc2ccc(OC(F)(F)F)c(Cl)c2)C(=O)NC2(C#N)CC2)n1 reported_result=1.52

What half-life value was documented for this molecule, CC(C)n1ncc(C(=O)N[C@@H](Cc2ccc(OC(F)(F)F)c(Cl)c2)C(=O)NC2(C#N)CC2)n1 ? 1.53

* * *

# System: Mdr1a (P-gp)
# ASSAY NOTES: Efflux ratio of permeability across pig LLC-PK1 cells expressing mouse Mdr1a at 1 uM after 3.5 hrs by LC-MS/MS analysis
# Assay type: ADME, cell-based, Sus scrofa
VALUE TYPE: efflux ratio at 3.5 h, 1 µM
Numbers only.

What efflux ratio at 3.5 h, 1 µM value was documented for this molecule, N#CC1(NC(=O)[C@H](Cc2ccc(OC(F)(F)F)c(Cl)c2)NC(=O)c2cnn(-c3ccc(F)cc3)n2)CC1 ? 20

* * *

# Tested on: MDR1 (P-gp)
# ASSAY NOTES: Efflux ratio of permeability across pig LLC-PK1 cells expressing human MDR1 at 1 uM after 3.5 hrs by LC-MS/MS analysis
# Type: ADME, cell-based, Sus scrofa
VALUE TYPE: efflux ratio at 3.5 h, 1 µM
Numbers only.

What efflux ratio at 3.5 h, 1 µM value was documented for this compound, N#CC1(NC(=O)[C@H](Cc2ccc(OC(F)(F)F)c(Cl)c2)NC(=O)c2cnn(-c3ccc(F)cc3)n2)CC1 ? 6

* * *

# ASSAY NOTES: Permeability of the compound after 15 hrs by PAMPA
# Format: physicochemical
# TEST SETTINGS: read-out: permeability
Please respond with reported Papp at 15 h for every item in the list.
State the value, then name its unit.

Known Papp at 15 h results, listed for orientation:
chemical_smiles=N#CC1(NC(=O)[C@H](Cc2ccc(OC(F)(F)F)c(Cl)c2)NC(=O)c2cnn(-c3ccc(F)nc3)n2)CC1 reported_result="0.291 ×10⁻⁶ cm/s"
chemical_smiles=Cn1ncc(C(=O)N[C@@H](Cc2ccc(OC(F)(F)F)c(Cl)c2)C(=O)NC2(C#N)CC2)n1 reported_result="0.12 ×10⁻⁶ cm/s"
chemical_smiles=CC(C)(C)n1ncc(C(=O)N[C@@H](Cc2ccc(OC(F)(F)F)c(Cl)c2)C(=O)NC2(C#N)CC2)n1 reported_result="2.86 ×10⁻⁶ cm/s"
chemical_smiles=CC(C)n1ncc(C(=O)N[C@@H](Cc2ccc(OC(F)(F)F)c(Cl)c2)C(=O)NC2(C#N)CC2)n1 reported_result="0.138 ×10⁻⁶ cm/s"
chemical_smiles=N#CC1(NC(=O)[C@H](Cc2ccc(Cl)c(Cl)c2)NC(=O)c2cnn(-c3ccc(F)cc3)n2)CC1 reported_result="1.07 ×10⁻⁶ cm/s"

Now turn to the next compound.
What Papp at 15 h value was documented for this compound, N#CC1(NC(=O)[C@H](Cc2ccc(OC(F)(F)F)c(Cl)c2)NC(=O)c2cnn(-c3cccnc3)n2)CC1 ? 0.447 ×10⁻⁶ cm/s
